Catalogue of melting point readings, one per entry.

See these solved cases before continuing.
                                   molecule         result
0  COc1cc(OC)c2c(=O)cc(-c3ccc(OCCN4CCCC4)cc3)oc2c1  114 to 115 °C
1  COc1cc(OC)c2c(=O)cc(-c3ccc(OCCN)cc3)oc2c1  165 to 166 °C

If you can, please state the reported melting point value of COc1cc(OC)c2c(=O)cc(-c3ccc(OCCN4CCCCC4)cc3)oc2c1 .
79 to 80 °C

If you can, please state the reported melting point value of COc1cc(OC)c2c(=O)cc(-c3ccc(OCCCN(C)C)cc3)oc2c1 .
105 to 106 °C

If you can, please state the reported melting point value of COc1cc(OC)c2c(=O)cc(-c3ccc(NCCN4CCCC4)cc3)oc2c1 .
148 to 149 °C

If you can, please state the reported melting point value of COc1cc(OC)c2c(=O)cc(-c3ccc(OCCN4CCOCC4)cc3)oc2c1 .
149 to 150 °C

If you can, please state the reported melting point value of COc1cc(OC)c2c(=O)cc(-c3ccc(OCCN(C)C)cc3)oc2c1 .
153 to 154 °C

If you can, please state the reported melting point value of COc1cc(OC)c2c(=O)cc(-c3ccc(-c4ccc(F)nc4)cc3)oc2c1 .
209 to 210 °C

If you can, please state the reported melting point value of COc1cc(OC)c2c(=O)cc(-c3ccc(OCC(O)CN4CCCC4)cc3)oc2c1 (stereo not drawn) .
137 to 138 °C
